Values compiled from patent US20180177842A1.

- test target: T1, His-tagged P3028 (human, also: His tag, length and end not given here)
- T1 construct: in solution at 0.5 ug/mL, detected with mouse anti-His antibody and rabbit anti-mouse peroxidase (rampo); also called PGE73; His-tag-P3028; not shown: His tag
- T1 peptide: VFDEFKPLVEEPQNLIK
- assay remarks: PEPSCAN ELISA, peptide on chip;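 note: binding detected by peroxidase ELISA with ABTS, OD405 colour imaged by CCD camera before and after staining, raw OD405 reported as rampo units, air-bubble wells scored 0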
Ends that are not written are not given here.
Quick rule for you: RAMPO Score under 500 rampo units gets true, anything else gets false.

Example cases with answers are listed next.
Please indicate whether the reported RAMPO Score of KKLDWFFVKLSLFTER [SEQ ID NO 311] is strictly below 500 rampo units.
true

Please indicate whether the reported RAMPO Score of KKLDTFFVKLSLSTER [SEQ ID NO 372] is strictly below 500 rampo units.
false

Please indicate whether the reported RAMPO Score of KKLDTFFVKLSQFTER [SEQ ID NO 355] is strictly below 500 rampo units.
false

Next:
Please indicate whether the reported RAMPO Score of KKEDTFFVKLSLFTER [SEQ ID NO 285] is strictly below 500 rampo units.
false

Please indicate whether the reported RAMPO Score of KKGDTFFVKLSLFTER [SEQ ID NO 287] is strictly below 500 rampo units.
false

Please indicate whether the reported RAMPO Score of KKLDTFFFKLSLFTER [SEQ ID NO 326] is strictly below 500 rampo units.
true

Please indicate whether the reported RAMPO Score of KKLDTTFVKLSLFTER [SEQ ID NO 318] is strictly below 500 rampo units.
true

Please indicate whether the reported RAMPO Score of KKLDTFFVKSSLFTER [SEQ ID NO 341] is strictly below 500 rampo units.
true

Please indicate whether the reported RAMPO Score of KKLDTFFVKLSLWTER [SEQ ID NO 375] is strictly below 500 rampo units.
true
